- method.description: protein stability index of a GFP-peptide fusion (GPS, HEK-293T) (PSI 1-6); higher = more stable;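 also: 24-mer peptide tiles fused after GFP, lentivirally expressed, FACS-sorted into six equal bins by GFP/DsRed ratio, decoded by Illumina sequencing, PSI is the read-weighted mean bin number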
- setup.conditions: treatment: MLN4924 1 uM, 8 h; c terminus: a fixed tail appended
# binarize protein stability index: threshold 3 inclusive, high side Satisfied, low side Not satisfied

Request: Check if protein stability index >= 3 (inclusive). Item: GQLYAMELQGFWMDIGQPKDFLTG [GMPPB]
Response: Not satisfied

Request: Next entry: PHVCSLCGKAFYKKYRLTEHERAH [ZNF649]
Response: Satisfied

Request: Next entry: YSKTFQRSNVDFLETPELTSTMLV [NECAB1]
Response: Not satisfied

Request: Next entry: FTRSQTLIQNGGEIDCVDKDGNTP [ANKRD44]
Response: Satisfied

Request: Next entry: DFIDCVREKGGKVLVHCEAGISRS [DUSP5]
Response: Not satisfied

Request: Next entry: IRKERKRLKLMQQNPAGELEGFQA [ATE1]
Response: Satisfied

Request: Next entry: GLSQGLVDREKGLSAEPGWQAKRE [CHGA]
Response: Satisfied

Request: Next entry: QAQGARAGGSARRPDTGDDAAGHG [GMCL1]
Response: Satisfied

Request: Next entry: VLPHVPLGVIQRDLAKTGCVDLTI [AUP1]
Response: Not satisfied

Request: Next entry: SQLSMKASLENSLEETKGRYCMQL [KRT16]
Response: Satisfied

Request: Next entry: IFTTPNFDETSSATTISTSEDGSY [KMT2E]
Response: Satisfied

====

- method.description: protein stability index of a GFP-peptide fusion (GPS, HEK-293T) (PSI 1-6); higher = more stable
- setup.conditions: treatment: MLN4924 1 uM, 8 h; c terminus: a fixed tail appended
Please provide measured protein stability index for the entries that follow.

Request: # get_value(readout='protein stability index', item= GLAYDRKKVSKAAILARIKRTGDG [SCD] )
Response: 3.63

Request: Next entry: VELPCRISPGKNATGMEVGWYRPP [MOG]
Response: 2.32

Request: Next entry: KDRETSKVIYDFIEKTGGVEAVKN [WASL]
Response: 3.37

Request: Next entry: MEEDKLLSAVPEEGDATRDPGPEP [PSD2]
Response: 5.52

Request: Next entry: LTTKGEMPVQLTSRREIRKIMGVE [ANKRD40]
Response: 3.85

Request: Next entry: VKTSVPSSKSSGDLVDLFDGTSQS [CLINT1]
Response: 4.8

Request: Next entry: TLSFIVDGQYLGVAFRGLKGKKLY [SPSB4]
Response: 2.31

====

- method.description: protein stability index of a GFP-peptide fusion (GPS, HEK-293T) (PSI 1-6); higher = more stable
- setup.conditions: treatment: MLN4924 1 uM, 8 h; c terminus: a fixed tail appended
quantity: protein stability index
Respond using a number only.

Request: # get_value(readout='protein stability index', item= ALDKQHSRDSAAITHSTYSLPASS [NOL4L] )
Response: 4.5

Request: Next entry: ETCDLGKIKPEARRYLEKSIKMGK [NLN]
Response: 4.45

Request: Next entry: KSVAWEGGACPAFLPSLRPPPLTS [NCF4]
Response: 3.11

Request: Next entry: LGYPYVNSVSSHASSPYISSVQSY [DLX1]
Response: 2.35

Request: Next entry: AECFRIFDRNADGYIDPEELAEIF [TNNC2]
Response: 5.09

Request: Next entry: QLWELGKVLRKAGLSAGYVDAGAE [LPCAT4]
Response: 2.13

Request: Next entry: CWLNAFAEMLRFGDRMFYRDWWNS [SOAT2]
Response: 2.91

Request: Next entry: PRSTVRQKVASNHSPFSSESRALS [TBX5]
Response: 4.15

Request: Next entry: KHFCPRAPVILVGCQLDLRYADLE [RHOBTB2]
Response: 2.52

Request: Next entry: KLRLFDTPHTPKSLLSKARGIDSS [WEE1]
Response: 3.26

Request: Next entry: EVLSKALSQRTITVGVYEAAKLLN [GADD45A]
Response: 2.56

Request: Next entry: QTYQPPWKALSEFALQSDLDQPAF [ISL2]
Response: 3.04

Request: Next entry: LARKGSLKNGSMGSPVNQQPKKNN [FAM219A]
Response: 4.77

Request: Next entry: RGFAFVTFESPADAKDAARDMNGK [RBMX]
Response: 4.19

Request: Next entry: IPYFITLGTELAERQGNGQQAMSL [KCNA3]
Response: 3.01

Request: Next entry: SAQRSKDPNSQVGACIVNSENKIV [DCTD]
Response: 4.98

Request: Next entry: MEVPQPEPAPGSALSPAGVCGGAQ [CDC25B]
Response: 5.23

Request: Next entry: GDTKRATPIEVLCENFPEMATYLR [CSNK1G3]
Response: 2.97

Request: Next entry: EDLEATSEHFKTTSQKVARKFWWK [VAMP8]
Response: 3.82

Request: Next entry: VTSQQEPQIPVDRGSETTYESSAD [TAF7L]
Response: 5.52

Request: Next entry: CEKTFNRKDHLKNHLQTHDPNKMA [PLAGL1]
Response: 4.42

Request: Next entry: VDATLEHVQDPQNTVKVQVLYPDG [INTS4]
Response: 4.49

Request: Next entry: DVPVIPLDVVDNQTEKLDTNITEV [CASP6]
Response: 5.14

Request: Next entry: CVLRCSVLEIEQSMNRVKNISDAD [FEM1B]
Response: 2.83

Request: Next entry: LPESLARSLLPSTEYQKQLLAAQV [FBF1]
Response: 2.56

Request: Next entry: EIPDQNIDVEALQVAFGSLYRDDV [GMCL1]
Response: 4.64

Request: Next entry: PAQLSEDITRYYLCLQLRDDIVSG [EPB41L3]
Response: 2.43

Request: Next entry: AERLEVSVDGLTLSPDPEERPGAE [ACBD3]
Response: 5.56

Request: Next entry: MKRQNVRTLSLIVCTFTYLLVGAA [KCNK9]
Response: 2.95

Request: Next entry: GAIAVFVYASDKEWIRFDQSNVLC [PTGFR]
Response: 2.87

Request: Next entry: QVLEMKNQQIHEQEKKILELEKLA [MTUS2]
Response: 4.62

Request: Next entry: PVENFFVKCNGALINTSDTVQHGA [SDE2]
Response: 3.08

Request: Next entry: QEHQSALEEAKQPKNDNVVIPECA [SMOC2]
Response: 5.46

Request: Next entry: SVLKLHHSLQQSEPDLRHLVLVVN [SERTAD1]
Response: 2.04

Request: Next entry: PVFNAMFEHEMEESKKNRVEINDL [SPOPL]
Response: 4.69

Request: Next entry: SYIGLPYADHNYGARPPPTPPASP [KMT2E]
Response: 4.73

Request: Next entry: LTERKYKGDSTIRELKAKLSGVEE [SASS6]
Response: 4.63

Request: Next entry: GPFGVNHGVELHSDVIEYAKQKLD [PCMTD2]
Response: 4.28

Request: Next entry: LPEKPVKLASHTRDTTGVSQMFPS [FBF1]
Response: 3.99

Request: Next entry: TCGGGVQFSSRDCTRPVPRNGGKY [ADAMTS4]
Response: 3.94

Request: Next entry: NSVSSHASSPYISSVQSYPGSASL [DLX1]
Response: 3.75

Request: Next entry: FIPSSHNDRDFLTRIFTEDRFAQD [PPEF2]
Response: 3.05

Request: Next entry: RQSYDISIVAQVDQTGSKSSNLLD [CARM1]
Response: 4.07

Request: Next entry: LSQADFLVCTFSSQVCRVAYEIMQ [FUT8]
Response: 2.93

Request: Next entry: LENVFSSLTDDKYDVAMNRAKDLV [GOLPH3L]
Response: 3.92

Request: Next entry: ASDYFKAMFTGGMKEQDLMCIKLH [KLHL13]
Response: 2.13

Request: Next entry: EDHKPGTFPKALTNGSFSPSGNNG [DLC1]
Response: 4.91

Request: Next entry: GTEQAPYGMQTQNYPKGGLLDSMC [ETS2]
Response: 3.84

Request: Next entry: AADGPTVCCNPYHFSRLCGPESPP [SMAD6]
Response: 3.76

Request: Next entry: QEVTKLQQQVKTNGAGVTVLRREI [FBXO28]
Response: 4.03

Request: Next entry: ERLTKQEKRPLFLAPDFDRWLDES [HACD3]
Response: 3.93

Request: Next entry: LCKSVLEIERAIKQTQCPADPLQL [FEM1C]
Response: 3.11

Request: Next entry: VLQDRAAKGSLGTQIGFADLMGVL [FEM1A]
Response: 2.22

Taken from the supplement of paper PMC10567573.
